EC50 reference
- tested_on: human APJ receptor (Homo sapiens (Human))
- Sequence (P35414 whole entry): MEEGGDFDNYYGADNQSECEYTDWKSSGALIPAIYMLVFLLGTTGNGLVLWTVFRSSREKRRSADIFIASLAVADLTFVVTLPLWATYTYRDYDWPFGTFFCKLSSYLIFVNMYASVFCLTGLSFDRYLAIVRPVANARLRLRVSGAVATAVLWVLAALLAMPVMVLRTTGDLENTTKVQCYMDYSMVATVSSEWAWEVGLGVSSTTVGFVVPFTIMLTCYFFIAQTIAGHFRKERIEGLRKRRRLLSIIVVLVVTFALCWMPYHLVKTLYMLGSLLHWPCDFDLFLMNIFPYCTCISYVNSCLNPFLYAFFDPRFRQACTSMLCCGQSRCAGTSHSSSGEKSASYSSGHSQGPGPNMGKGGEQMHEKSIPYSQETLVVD
- method_summary: Intracellular cAMP accumulation assay (APJ hcAMP, HTRF)
- Format: cell-based
- conditions_used: human APJ, intracellular cAMP accumulation; read-out: Human APJ cAMP EC50 Potency range

Some compounds with recorded EC50:
{"compound": "CCCCc1nc(=O)c(S(=O)(=O)c2ccc(C)cc2)c(O)n1-c1c(CC)cccc1CC [Example 66]", "EC50": "0.01 to 10 nM"}
{"compound": "CCCCc1nc(=O)c(S(=O)(=O)c2ccc(-c3ccc4c(ccn4C)c3)cc2)c(O)n1-c1c(OC)cccc1OC [Example 53]", "EC50": "0.01 to 10 nM"}
{"compound": "CCCCc1nc(=O)c(S(=O)(=O)c2ccc(-c3ccc4ncccc4c3)cc2)c(O)n1-c1c(OC)cccc1OC [Example 54]", "EC50": "0.01 to 10 nM"}
{"compound": "CCCCc1nc(=O)c(S(=O)(=O)c2ccc(-c3ccc(C(C)(C)O)cc3)cc2)c(O)n1-c1c(OC)cccc1OC [Example 31]", "EC50": "0.01 to 10 nM"}
{"compound": "CCCCc1nc(=O)c(S(=O)(=O)c2ccc(-c3cncc(F)c3)cc2)c(O)n1[C@H]1CCc2ccccc21 [Example 168]", "EC50": "0.01 to 10 nM"}

Lab note: measured EC50 of COc1cccc(OC)c1-n1c(CCC(C)C)nc(=O)c(S(=O)(=O)c2ccccc2-c2ccccc2)c1O [Example 22] was 10 to 100 nM
